target: hGLP-1R (Homo sapiens, UniProt P43220); assay: cell-based or functional assay
Sequence (P43220 24-463): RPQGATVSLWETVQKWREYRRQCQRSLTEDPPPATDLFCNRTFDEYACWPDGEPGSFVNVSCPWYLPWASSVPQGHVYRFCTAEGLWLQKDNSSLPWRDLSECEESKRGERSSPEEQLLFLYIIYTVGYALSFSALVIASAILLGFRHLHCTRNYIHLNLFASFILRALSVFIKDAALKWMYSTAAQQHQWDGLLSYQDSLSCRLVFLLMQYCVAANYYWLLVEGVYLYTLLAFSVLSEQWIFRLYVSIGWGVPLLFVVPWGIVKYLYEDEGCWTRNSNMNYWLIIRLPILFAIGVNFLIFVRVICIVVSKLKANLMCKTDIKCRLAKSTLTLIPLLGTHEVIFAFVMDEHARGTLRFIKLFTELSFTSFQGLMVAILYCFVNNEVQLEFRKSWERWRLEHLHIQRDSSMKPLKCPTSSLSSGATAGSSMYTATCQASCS
Non-standard residues stand in square brackets, D forms with d. No end group written: not given here. NMeY = CN[C@@H](Cc1ccc(O)cc1)C(=O)O; αMeF = C[C@](N)(Cc1ccccc1)C(=O)O; Aib = CC(C)(N)C(=O)O
The entries below are paired with their reported log10 cAMP Rel EC50 (1% HSA).
Give log10 of cAMP Rel EC50 (1% HSA), with cAMP Rel EC50 (1% HSA) taken in nM.

Please review the following examples before continuing.
Binder: YXQGTFTSDXSKXLDKKAQXAFIEYLIEGGPSSGAPPPSGS (non-natural residues; lipidated Lys AEEA-γGlu-C18 diacid; C-term amide; synthetic construct; SITE 2: note = 2-Aminoisobutyric Acid; SITE 10: note = 3-(4-Pyridyl)-L-alanine; SITE 13: note = alpha-methyl-leucine; SITE 17: note = Lysine is chemically modified through conjugation of the epsilon-amino group of the Lysine side chain with (2-[2-(2-Amino-ethoxy)-ethoxy]-acetyl)) [Example 908]
log10 cAMP Rel EC50 (1% HSA): 2.24

Binder: YXQGTFTSDXSQXLDKKAQXAFIEYLIEXGPSSGAPPPSGSEE (acylated lysine γGlu-C18 diacid; non-natural residues; C-terminal amide; synthetic construct; SITE 2: note = 2-Aminoisobutyric Acid; SITE 10: note = 3-(4-Pyridyl)-L-alanine; SITE 13: note = alpha-methyl-leucine; SITE 17: note = Lysine is chemically modified through conjugation of the epsilon-amino group of the Lysine side chain with D-Glutamic acid-(gamma-Glu)-CO-(CH2)16) [Example 928]
log10 cAMP Rel EC50 (1% HSA): 2.78

Binder: YXQGTFTSDXSQXLDKKAQXAFIEYLIEXGPSSGAPPPSGS (non-natural residues; C18 diacid-e-γGlu-e on Lys; C-terminal amide; synthetic construct; SITE 2: note = 2-Aminoisobutyric Acid; SITE 10: note = 3-(4-Pyridyl)-L-alanine; SITE 13: note = alpha-methyl-leucine; SITE 17: note = Lysine is chemically modified through conjugation of the epsilon-amino group of the Lysine side chain with D-Glutamic acid-(gamma-Glu)-D-Glutamic) [Example 923]
log10 cAMP Rel EC50 (1% HSA): 2.94

Q: Please list log10 cAMP Rel EC50 (1% HSA) recorded for the binder YXQGTXTSDXXIXLDXKAQXXFIEXLTEGGPSSGEPPPSGTE (synthetic construct; SITE 2: note = 2-Aminoisobutyric Acid; SITE 6: note = alpha-methyl-2-fluoro-L-phenylalanine; SITE 10: note = 3-(4-Pyridyl)-L-alanine; SITE 11: note = alpha-methyl-L-serine; SITE 13: note = alpha-methyl-leucine; SITE 16: note = L-ornithine; SITE 17: note = Lysine is chemically mo) [Example 542]
Ans: 1.47

Q: Kindly indicate its recorded log10 cAMP Rel EC50 (1% HSA). Item: [NMeY][Aib]QGT[αMeF]TSDYSILLDKIAAKAFIEYLIEGGPSSGEPPPSEG-NH2 (not fully specified (residue 20)) [Example 299]
Ans: 2.58

Q: Using known records, supply log10 cAMP Rel EC50 (1% HSA) for YXQGTFTSDXSQXLDKKAQXAFIEYLLEAGPSSGAPPPSGS (synthetic construct; SITE 2: note = 2-Aminoisobutyric Acid; SITE 10: note = 3-(4-Pyridyl)-L-alanine; SITE 13: note = alpha-methyl-leucine; SITE 17: note = Lysine is chemically modified through conjugation of the epsilon-amino group of the Lysine side chain with (2-[2-(2-Amino-ethoxy)-ethoxy]-acetyl)) [Example 820]
Ans: 2.48
